Consider the following pIC50 data for Lysine-specific demethylase 5B (Homo sapiens, UniProt Q9UGL1), collected from several reports.
pIC50: −log10 of the molar value.

Below: 5 compounds and their reported pIC50.
| Compound | Result |
| --- | --- |
| O=C(O)c1c(NCc2cccc(-c3cccnc3)c2)ccc2nccn12 | 6.00 to 6.30 |
| O=C(O)c1c(NCc2cccc(Cl)c2Cl)ccc2nccn12 | < 6.00 |
| O=C(O)c1c(NCc2ccc(Cl)cc2)ccc2nccn12 | < 6.00 |
| O=C(O)c1ccnc(CNC2CCCn3ccnc32)c1 (centres unmarked) | > 6.60 |
| O=C(O)c1ccncc1Nc1nn(CCCCCO)c2ccc(F)cc12 | > 7.00 |

In: What pIC50 appears in the records for this compound with Lysine-specific demethylase 5B (Homo sapiens, UniProt Q9UGL1)? O=C(O)c1ccnc(-n2nccc2-c2cccc(O)c2)c1
Out: 6.00 to 7.00

In: What pIC50 appears in the records for this compound with Lysine-specific demethylase 5B (Homo sapiens, UniProt Q9UGL1)? O=C(O)c1c(NCc2c(F)cccc2F)ccc2nccn12
Out: < 6.00

In: What pIC50 appears in the records for this compound with Lysine-specific demethylase 5B (Homo sapiens, UniProt Q9UGL1)? Cc1cc(Cl)ccc1CNc1ccc2nccn2c1C(=O)O
Out: 6.00 to 6.30

In: What pIC50 appears in the records for this compound with Lysine-specific demethylase 5B (Homo sapiens, UniProt Q9UGL1)? O=C(O)c1ccnc(-c2cn(CC3CCCN3)cn2)c1 (centres unmarked)
Out: ≥ 7.00

In: What pIC50 appears in the records for this compound with Lysine-specific demethylase 5B (Homo sapiens, UniProt Q9UGL1)? O=C(O)c1ccnc(-n2nc(C3CCCC3)cc2O)c1
Out: 6.00 to 7.00

In: What pIC50 appears in the records for this compound with Lysine-specific demethylase 5B (Homo sapiens, UniProt Q9UGL1)? O=C(O)c1ccnc(CNCc2cn(Cc3ccc(F)cc3)c3ncccc23)c1
Out: 5.60 to 6.60

In: What pIC50 appears in the records for this compound with Lysine-specific demethylase 5B (Homo sapiens, UniProt Q9UGL1)? CCCCCn1nc(Nc2cnccc2C(=O)O)c2cc(F)ccc21
Out: > 7.00

In: What pIC50 appears in the records for this compound with Lysine-specific demethylase 5B (Homo sapiens, UniProt Q9UGL1)? COc1c(F)cc(Oc2nc(O)c3ccncc3n2)cc1F
Out: ≥ 7.00

In: What pIC50 appears in the records for this compound with Lysine-specific demethylase 5B (Homo sapiens, UniProt Q9UGL1)? O=C(O)c1ccnc(-n2nc(-c3ccccc3Cl)cc2O)c1
Out: 5.00 to 6.00

In: What pIC50 appears in the records for this compound with Lysine-specific demethylase 5B (Homo sapiens, UniProt Q9UGL1)? O=C(O)c1ccncc1Nc1nn([C@H]2CCOC2)c2ccc(F)cc12
Out: > 7.00

In: What pIC50 appears in the records for this compound with Lysine-specific demethylase 5B (Homo sapiens, UniProt Q9UGL1)? N#Cc1ccc(COc2ccnn2-c2cc(C(=O)O)ccn2)cc1
Out: > 7.00

In: What pIC50 appears in the records for this compound with Lysine-specific demethylase 5B (Homo sapiens, UniProt Q9UGL1)? Oc1nc(Oc2cnn([C@@H]3CCCN(c4ccc(F)cc4)C3)c2)nc2cnccc12
Out: ≥ 7.00

In: What pIC50 appears in the records for this compound with Lysine-specific demethylase 5B (Homo sapiens, UniProt Q9UGL1)? O=C(O)c1c(NCc2ccc(N3CCCCC3)cc2)ccc2nccn12
Out: < 6.00

In: What pIC50 appears in the records for this compound with Lysine-specific demethylase 5B (Homo sapiens, UniProt Q9UGL1)? O=C(O)c1c(NCc2ccc(-c3ccccc3)cc2)ccc2nccn12
Out: < 6.00

In: What pIC50 appears in the records for this compound with Lysine-specific demethylase 5B (Homo sapiens, UniProt Q9UGL1)? Cc1ccc(COc2ccnn2-c2cc(C(=O)O)ccn2)cc1F
Out: > 7.00
